Each recorded value in this set is attributed to paper PMC5700166.

# study_system: GST-Ap-NF-kB RHD (Exaiptasia pallida (Aiptasia), UniProt A0A913YAJ5 2-422)
# Sequence: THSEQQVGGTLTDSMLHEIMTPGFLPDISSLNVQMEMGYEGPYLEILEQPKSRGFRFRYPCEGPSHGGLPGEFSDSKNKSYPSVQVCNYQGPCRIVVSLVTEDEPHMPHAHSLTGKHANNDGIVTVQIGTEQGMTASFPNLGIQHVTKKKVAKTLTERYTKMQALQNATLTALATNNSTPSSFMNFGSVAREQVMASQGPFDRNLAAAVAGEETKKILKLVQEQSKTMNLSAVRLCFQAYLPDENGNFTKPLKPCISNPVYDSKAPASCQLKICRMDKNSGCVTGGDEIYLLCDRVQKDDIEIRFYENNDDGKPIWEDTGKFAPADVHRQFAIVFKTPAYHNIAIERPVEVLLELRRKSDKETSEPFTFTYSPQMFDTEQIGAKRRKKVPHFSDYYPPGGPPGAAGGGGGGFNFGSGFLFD
# protocol_text: protein-binding microarray (PBM); PBM: ~300 nM protein, 6 mM HEPES pH 7.8, 80 mM KCl, 0.5 mM EDTA, 0.5 mM EGTA, 6% glycerol, 35 ng/ul poly-dIdC, 1% milk, 1 h, room temperature; Ap Aiptasia and Nv Nematostella (sea anemones) / Co Capsaspora / Aq Amphimedon (sponge) / Dm Drosophila / Hu human; RHD is the Rel homology domain; high values mean tight binding
# condition_set: dsDNA, one strand shown
Cut-off 5 z-score on binding signal: below means Yes, at or above means No.

{"columns": ["biosequence", "study_system", "group"],
 "data": [
  ["CCGATTAACATCAAGAATCCCCCTGATGTTAATCGGGTCTTGATTCGCTTGACGCTGCTG", "GST-Ap-NF-kB RHD (Exaiptasia pallida (Aiptasia), UniProt A0A913YAJ5 2-422)", "No"],
  ["CCGATTAACATCACCGGGGATAGTGATGTTAATCGGGTCTTGATTCGCTTGACGCTGCTG", "GST-Ap-NF-kB RHD (Exaiptasia pallida (Aiptasia), UniProt A0A913YAJ5 2-422)", "Yes"],
  ["CCGATTAACATCAGGACTCTCCCTGATGTTAATCGGGTCTTGATTCGCTTGACGCTGCTG", "GST-Ap-NF-kB RHD (Exaiptasia pallida (Aiptasia), UniProt A0A913YAJ5 2-422)", "Yes"],
  ["CCGATTAACATCAGGGTAATTTATGATGTTAATCGGGTCTTGATTCGCTTGACGCTGCTG", "GST-Ap-NF-kB RHD (Exaiptasia pallida (Aiptasia), UniProt A0A913YAJ5 2-422)", "Yes"],
  ["CCGATTAACATCAACCTCCCCCCTGATGTTAATCGGGTCTTGATTCGCTTGACGCTGCTG", "GST-Ap-NF-kB RHD (Exaiptasia pallida (Aiptasia), UniProt A0A913YAJ5 2-422)", "No"],
  ["CCGATTAACATCAGGGGACTACCTGATGTTAATCGGGTCTTGATTCGCTTGACGCTGCTG", "GST-Ap-NF-kB RHD (Exaiptasia pallida (Aiptasia), UniProt A0A913YAJ5 2-422)", "No"],
  ["CCGATTAACATCAAAAATCCCACTGATGTTAATCGGGTCTTGATTCGCTTGACGCTGCTG", "GST-Ap-NF-kB RHD (Exaiptasia pallida (Aiptasia), UniProt A0A913YAJ5 2-422)", "Yes"],
  ["CCGATTAACATCAAAATACCCCTTGATGTTAATCGGGTCTTGATTCGCTTGACGCTGCTG", "GST-Ap-NF-kB RHD (Exaiptasia pallida (Aiptasia), UniProt A0A913YAJ5 2-422)", "No"],
  ["CCGATTAACATCAGGGGAATCACTGATGTTAATCGGGTCTTGATTCGCTTGACGCTGCTG", "GST-Ap-NF-kB RHD (Exaiptasia pallida (Aiptasia), UniProt A0A913YAJ5 2-422)", "No"],
  ["CCGATTAACATCAAGGGGAAAAATGATGTTAATCGGGTCTTGATTCGCTTGACGCTGCTG", "GST-Ap-NF-kB RHD (Exaiptasia pallida (Aiptasia), UniProt A0A913YAJ5 2-422)", "No"],
  ["CCGATTAACATCACGGGACATACTGATGTTAATCGGGTCTTGATTCGCTTGACGCTGCTG", "GST-Ap-NF-kB RHD (Exaiptasia pallida (Aiptasia), UniProt A0A913YAJ5 2-422)", "Yes"],
  ["CCGATTAACATCAACGATTCCCCTGATGTTAATCGGGTCTTGATTCGCTTGACGCTGCTG", "GST-Ap-NF-kB RHD (Exaiptasia pallida (Aiptasia), UniProt A0A913YAJ5 2-422)", "No"],
  ["CCGATTAACATCAAATAAGTCCCTGATGTTAATCGGGTCTTGATTCGCTTGACGCTGCTG", "GST-Ap-NF-kB RHD (Exaiptasia pallida (Aiptasia), UniProt A0A913YAJ5 2-422)", "Yes"],
  ["CCGATTAACATCAGGAGATCCCATGATGTTAATCGGGTCTTGATTCGCTTGACGCTGCTG", "GST-Ap-NF-kB RHD (Exaiptasia pallida (Aiptasia), UniProt A0A913YAJ5 2-422)", "Yes"],
  ["CCGATTAACATCAGGGTATACCCTGATGTTAATCGGGTCTTGATTCGCTTGACGCTGCTG", "GST-Ap-NF-kB RHD (Exaiptasia pallida (Aiptasia), UniProt A0A913YAJ5 2-422)", "Yes"],
  ["CCGATTAACATCAGTTTTCCCCATGATGTTAATCGGGTCTTGATTCGCTTGACGCTGCTG", "GST-Ap-NF-kB RHD (Exaiptasia pallida (Aiptasia), UniProt A0A913YAJ5 2-422)", "No"],
  ["CCGATTAACATCAGGGGGTATTATGATGTTAATCGGGTCTTGATTCGCTTGACGCTGCTG", "GST-Ap-NF-kB RHD (Exaiptasia pallida (Aiptasia), UniProt A0A913YAJ5 2-422)", "No"],
  ["CCGATTAACATCAAAAAGTCCCCTGATGTTAATCGGGTCTTGATTCGCTTGACGCTGCTG", "GST-Ap-NF-kB RHD (Exaiptasia pallida (Aiptasia), UniProt A0A913YAJ5 2-422)", "No"],
  ["CCGATTAACATCAGGGGGACACCTGATGTTAATCGGGTCTTGATTCGCTTGACGCTGCTG", "GST-Ap-NF-kB RHD (Exaiptasia pallida (Aiptasia), UniProt A0A913YAJ5 2-422)", "No"],
  ["CCGATTAACATCAAGGAGTCCCCTGATGTTAATCGGGTCTTGATTCGCTTGACGCTGCTG", "GST-Ap-NF-kB RHD (Exaiptasia pallida (Aiptasia), UniProt A0A913YAJ5 2-422)", "No"],
  ["CCGATTAACATCAACAATTCCCCTGATGTTAATCGGGTCTTGATTCGCTTGACGCTGCTG", "GST-Ap-NF-kB RHD (Exaiptasia pallida (Aiptasia), UniProt A0A913YAJ5 2-422)", "No"],
  ["CCGATTAACATCACCAAATCCCCTGATGTTAATCGGGTCTTGATTCGCTTGACGCTGCTG", "GST-Ap-NF-kB RHD (Exaiptasia pallida (Aiptasia), UniProt A0A913YAJ5 2-422)", "No"],
  ["CCGATTAACATCAGGCATTCCCCTGATGTTAATCGGGTCTTGATTCGCTTGACGCTGCTG", "GST-Ap-NF-kB RHD (Exaiptasia pallida (Aiptasia), UniProt A0A913YAJ5 2-422)", "No"],
  ["CCGATTAACATCAATCACCCCCATGATGTTAATCGGGTCTTGATTCGCTTGACGCTGCTG", "GST-Ap-NF-kB RHD (Exaiptasia pallida (Aiptasia), UniProt A0A913YAJ5 2-422)", "Yes"],
  ["CCGATTAACATCAGAAAATTACCTGATGTTAATCGGGTCTTGATTCGCTTGACGCTGCTG", "GST-Ap-NF-kB RHD (Exaiptasia pallida (Aiptasia), UniProt A0A913YAJ5 2-422)", "Yes"],
  ["CCGATTAACATCAGGGTTTTCCATGATGTTAATCGGGTCTTGATTCGCTTGACGCTGCTG", "GST-Ap-NF-kB RHD (Exaiptasia pallida (Aiptasia), UniProt A0A913YAJ5 2-422)", "Yes"]
]}
